assay: Determination of the log P values by HPLC (formic acid method); format: physicochemical; settings: reversed-phase column (C 18), acidic range (pH 3.4), 55° C.
Collected log P values appear next to each entry.
// keep it numeric: no unit symbol after the value

Answered cases to consult:
[
  {
    "Sample Smiles": "O=C(Nc1ccn(-c2c(Cl)cccc2Cl)n1)c1ccccc1C(F)(F)F",
    "log P": 3.05
  },
  {
    "Sample Smiles": "CCN(C(=O)c1ccccc1C(F)(F)F)c1ccn(-c2ncc(F)cc2F)n1",
    "log P": 3.23
  },
  {
    "Sample Smiles": "Cc1nn(C)c(C(=O)Nc2ccn(-c3ncc(F)cc3F)n2)c1[N+](=O)[O-]",
    "log P": 2.03
  }
]

Record summary for O=C(Nc1ccn(-c2ccccc2Cl)n1)c1cccnc1I : reported log P = 2.27

====

assay: Determination of the log P values by HPLC (formic acid method); assay type: physicochemical; conditions: reversed-phase column (C 18), acidic range (pH 3.4), 55° C.
Metric Name: log P
In your answer, state the number alone without any accompanying words.

Study these solved cases before continuing.
[
  {
    "Compound": "Cn1nc(C(F)(F)F)c(C(=O)Nc2ccn(-c3ncc(F)cc3F)n2)c1F",
    "log P": 2.36
  },
  {
    "Compound": "O=C(Nc1ccn(-c2ccc(F)cn2)n1)c1c(F)cccc1F",
    "log P": 2.61
  },
  {
    "Compound": "O=C(Nc1ccn(-c2ccc(Cl)cc2Cl)n1)c1ccccc1C(F)(F)F [Compound I-1-197]",
    "log P": 3.51
  },
  {
    "Compound": "CC(C)N(C(=O)c1ccccc1C(F)(F)F)c1ccn(-c2c(F)cccc2F)n1",
    "log P": 3.50
  },
  {
    "Compound": "O=C(Nc1nn(-c2cc(F)cnc2F)c2ccccc12)c1ccccc1Br",
    "log P": 3.05
  }
]

Lab note: O=C(Nc1ccn(-c2c(F)cccc2F)n1)c1nccnc1Cl gave log P of 2.15

log P reported for this compound CCn1ncc(Br)c1C(=O)Nc1ccn(-c2ncc(F)cc2F)n1 : 2.61

The compound CCCn1cc(Cl)c(C(=O)Nc2ccn(-c3c(F)cccc3F)n2)n1 showed log P equal to 3.05

Given item O=C(Nc1ccn(-c2ccc(F)cc2F)n1)c1ccccc1Cl , the value recorded as its log P is 2.91

The compound listed as O=C(Nc1ccn(-c2cc(F)c(F)cc2F)n1)c1ccccc1I has a reported log P of 4.10

Measured log P of O=C(Nc1cnn(-c2ncccc2F)n1)c1cccnc1C(F)(F)F : 1.76

====

Test: Determination of the log P values by HPLC (formic acid method)
Format: physicochemical
Details: reversed-phase column (C 18), acidic range (pH 3.4), 55° C.
Protocol: 1) Description of Method for Determination of the Log P Values (Formic Acid Method) Eluents for determination in the acidic range (pH 3.4): Eluent A: acetonitrile+1 ml of formic acid/liter. Eluent B: water+0.9 ml of formic acid/liter. The lambda max values were determined in the maxima of the chromatographic signals using the UV spectra from 200 nm to 400 nm.
The following molecules are listed with their measured log P values.
Quick one: just the number, no unit, thanks!

The following molecules have reported results that may help.
[
  {
    "Molecule": "Cc1cccnc1C(=O)Nc1ccn(-c2c(F)cccc2F)n1 [Compound I-1-90]",
    "log P": 2.86
  },
  {
    "Molecule": "Cn1cc(C(=O)Nc2ccn(-c3c(F)cccc3F)n2)c(C(F)(F)F)c1 [Compound I-1-240]",
    "log P": 2.52
  },
  {
    "Molecule": "Cc1nn(C)c(C(=O)Nc2ccn(-c3ncc(F)cc3F)n2)c1Br [Compound I-1-517]",
    "log P": 2.53
  },
  {
    "Molecule": "Cc1cc(NC(=O)c2ccccc2S(C)(=O)=O)nn1-c1ccccc1Cl [Compound I-1-342]",
    "log P": 1.82
  },
  {
    "Molecule": "O=C(Nc1ccn(-c2ncc(F)cc2F)n1)c1snc(Cl)c1Cl [Compound I-1-159]",
    "log P": 3.06
  }
]

Lab note: O=C(Nc1ccn(-c2c(F)cccc2F)n1)c1cccnc1F [Compound I-1-279] gave log P of 2.00

The recorded log P for O=C(Nc1cnn(-c2ccccc2Cl)n1)c1cccnc1Cl [Compound I-2-5] is 2.20

log P in this record for O=C(Nc1ccn(-c2cc(Cl)ccc2Cl)n1)c1ccccc1Br [Compound I-1-119] : 3.40

Item: O=C(Nc1ccn(-c2c(F)cccc2F)n1)c1sccc1C(F)(F)F [Compound I-1-284] | log P: 2.82

Sure, the documented log P for O=C(c1ccccc1C(F)(F)F)N(C(=O)c1ccccc1C(F)(F)F)c1nn(-c2ccccc2Cl)nc1Cl [Compound I-2-20] is 4.87

Where do these numbers come from? They come from patent US9802899B2.
